Tested on: Hela
TEST_DESCRIPTION: MTT cytotoxicity, Hela
Format: cell-based, human
STATED_CONDITIONS: 48 h incubation, read-out: Cytotoxic effect, IC50
pIC50: −log10 of the molar value.
Reported pIC50 by item:
MEASURED_QUANTITY: pIC50

>>> data_value("CCc1cc(CC)n(C(N)=S)n1.Cc1ccc(C(C)C)cc1.F[P-](F)(F)(F)(F)F.[Cl-].[Ru+2]")
3.99
>>> data_value("CCc1cc(CC)n(C(N)=S)n1.Cc1ccc(C(C)C)cc1.[Cl-].[Cl][Ru+]")
3.78
>>> data_value("Cc1cc(C)n(C(N)=S)n1.Cc1ccc(C(C)C)cc1.F[P-](F)(F)(F)(F)F.[Cl-].[Ru+2]")
4.01

---

Reported IC50 by item:
Test system: A549
TEST_DESCRIPTION: MTT cytotoxicity, A549
Type: cell-based, human
STATED_CONDITIONS: 48 h incubation, read-out: Cytotoxic effect, IC50
MEASURED_QUANTITY: IC50 (µM)

>>> data_value("Cc1cc(C)n(C(N)=S)n1.Cc1ccc(C(C)C)cc1.[Cl-].[Cl][Ru+] [2a]")
121
>>> data_value("Cc1ccc(C(C)C)cc1.F[P-](F)(F)(F)(F)F.NC(=S)n1nc(-c2ccccc2)cc1O.[Cl-].[Ru+2] [3c]")
191

---

Reported IC50 by item:
System: SW620
TEST_DESCRIPTION: MTT cytotoxicity, SW620
Assay type: cell-based, human
STATED_CONDITIONS: 48 h incubation, read-out: Cytotoxic effect, IC50
Method: […] The cytotoxicity was tested by a standard MTT [3-(4,5-dimethylthiazol-2-yl)-2,5-diphenyltetrazolium bromide] […] The anticancer activity of the investigated compounds was evaluated in vitro on the basis of their ability to inhibit the proliferation of various cancer cells. […] Purple formazan absorbance was measured spectrophotometrically at 570 nm.
MEASURED_QUANTITY: IC50 (µM)

>>> data_value("Cc1cc(C)n(C(N)=S)n1.Cc1ccc(C(C)C)cc1.F[P-](F)(F)(F)(F)F.[Cl-].[Ru+2] [3a]")
63.9
>>> data_value("Cc1ccc(C(C)C)cc1.F[P-](F)(F)(F)(F)F.NC(=S)n1nc(-c2ccccc2)cc1O.[Cl-].[Ru+2] [3c]")
90.1
>>> data_value("Cc1cc(C)n(C(N)=S)n1.Cc1ccc(C(C)C)cc1.[Cl-].[Cl][Ru+] [2a]")
118
>>> data_value("Cc1ccc(C(C)C)cc1.NC(=S)n1nc(-c2ccccc2)cc1O.[Cl-].[Cl][Ru+] [2c]")
49.4
>>> data_value("CCc1cc(CC)n(C(N)=S)n1.Cc1ccc(C(C)C)cc1.[Cl-].[Cl][Ru+] [2b]")
107

---

System: Caco2
TEST_DESCRIPTION: MTT cytotoxicity, Caco2
Type: cell-based, human
STATED_CONDITIONS: 48 h incubation, read-out: Cytotoxic effect, IC50
MEASURED_QUANTITY: IC50 (µM)

>>> data_value("Cc1cc(O)n(C(N)=S)n1.Cc1ccc(C(C)C)cc1.F[P-](F)(F)(F)(F)F.[Cl-].[Ru+2]")
162
>>> data_value("Cc1cc(C)n(C(N)=S)n1.Cc1ccc(C(C)C)cc1.F[P-](F)(F)(F)(F)F.[Cl-].[Ru+2]")
107
>>> data_value("CCc1cc(CC)n(C(N)=S)n1.Cc1ccc(C(C)C)cc1.F[P-](F)(F)(F)(F)F.[Cl-].[Ru+2]")
82.4
>>> data_value("Cc1ccc(C(C)C)cc1.F[P-](F)(F)(F)(F)F.NC(=S)n1nc(-c2ccccc2)cc1O.[Cl-].[Ru+2]")
172
